- test system: Sentrin-specific protease 6 (Homo sapiens) (UniProt Q9GZR1)
- Sequence (Q9GZR1 628-1112 limits assumed): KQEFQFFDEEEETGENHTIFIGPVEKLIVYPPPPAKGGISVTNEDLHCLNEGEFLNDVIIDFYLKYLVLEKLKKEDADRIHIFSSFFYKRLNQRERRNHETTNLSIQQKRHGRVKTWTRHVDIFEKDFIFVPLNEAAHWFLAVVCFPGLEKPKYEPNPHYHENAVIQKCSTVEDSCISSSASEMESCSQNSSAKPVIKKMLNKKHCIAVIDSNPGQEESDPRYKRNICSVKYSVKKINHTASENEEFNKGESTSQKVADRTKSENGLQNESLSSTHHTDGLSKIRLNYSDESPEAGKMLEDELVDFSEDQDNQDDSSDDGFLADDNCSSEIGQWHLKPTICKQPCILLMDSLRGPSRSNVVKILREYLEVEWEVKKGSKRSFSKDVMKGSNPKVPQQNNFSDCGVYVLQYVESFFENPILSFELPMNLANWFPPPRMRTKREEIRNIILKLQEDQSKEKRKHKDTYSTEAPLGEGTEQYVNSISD
- procedure summary: SENP6 protease inhibitors, primary screen, biochemical, luminescence, uHTS (AID 2599)
- experimental setup: Recombinant SENP6 catalytic domain, aminoluciferin luminescence; at 10 µM
Hit rate of the full screen: of about 330,000 compounds, about 5,800 (1.8%) were called active.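 Rule for the calls: active = inhibition above about 50% at the single tested dose (limit read from the data); inactive = the rest.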 This is one part of a sample in which actives are shown more often than they occur.
Outcome codes: active, inactive

- compound: "CC(CO)(CO)NC(=O)c1ccc(=O)[nH]n1"
  label class: "inactive"
- compound: "OC(CN=c1sc2ccccc2n1CC(O)COc1ccccc1)COc1ccccc1 (stereo unspecified)"
  label class: "inactive"
- compound: "CC(=O)Nc1ccc(NC(=O)C(NS(=O)(=O)c2ccc3c(c2)OCCO3)C(C)C)cc1 (stereo unspecified)"
  label class: "inactive"
- compound: "COc1ccc(CCNC(=O)COC(=O)Cc2ccccc2F)cc1"
  label class: "inactive"
- compound: "CCCn1nc(C(=O)OCc2nc(N)nc(Nc3ccccc3C)n2)c2ccccc2c1=O"
  label class: "inactive"
- compound: "Cc1cc(C)cc(NC(=O)N(C)Cc2ccccc2)c1"
  label class: "inactive"
- compound: "O=C(Nc1ccccc1Cc1ccccc1)c1ccc2c(c1)SC1=NS(=O)(=O)CCN12"
  label class: "inactive"
- compound: "CC(=O)Nc1ccc(/C=N/NC(=O)c2cccs2)cc1"
  label class: "active"
- compound: "N=c1c2c3c(sc2nc2n1CCCCC2)CCCC3"
  label class: "active"
- compound: "O=C(CCN1CCc2ccccc2C(O)(c2ccccc2)C1)c1ccc2c(c1)OCCO2 (stereo unspecified)"
  label class: "inactive"
- compound: "O=C(N/N=C/c1ccc(Cl)c(Cl)c1)c1ccc2nc[nH]c2c1"
  label class: "inactive"
- compound: "CCN(CC)c1ccc(/C=N/NC(=O)CNC(=O)c2cccs2)cc1"
  label class: "inactive"
- compound: "Cc1sc(NC(=O)c2ccc3ncsc3c2)c(C(N)=O)c1C"
  label class: "active"
- compound: "CC1(C)Cc2c(sc3nc4n(c(=N)c23)CCCCC4)CO1"
  label class: "inactive"
- compound: "Cc1ccc(C(=O)c2c(NC(=O)c3ccccc3)sc(C)c2C)cc1"
  label class: "inactive"
- compound: "C/C(=C\\c1ccco1)C1Nc2cccc3cccc(c23)N1"
  label class: "inactive"
- compound: "COc1ccc(OC)c(/C=C/C(=O)c2ccc3c(c2)OCO3)c1"
  label class: "inactive"
- compound: "CC(C)Sc1ncnc2c1cnn2-c1ccccc1"
  label class: "inactive"
- compound: "O=c1cc(Cl)c2ccccc2n1-c1ccccc1"
  label class: "inactive"
- compound: "C=CCOc1ccc(/C=C2\\SC(=S)N(CCC(=O)O)C2=O)cc1"
  label class: "active"
- compound: "CC(C)Oc1ccc(CN2CCC(n3nccc3NC(=O)c3cccnc3)CC2)cc1"
  label class: "inactive"
- compound: "CSc1ccc(/C=N/NC(=O)c2cccc(Cl)c2)cc1"
  label class: "active"
- compound: "COc1cccc(N2CC(NC(=O)c3ccc4ccccc4c3)CC2=O)c1 (stereo unspecified)"
  label class: "inactive"
- compound: "COc1ccc(C(C)=O)cc1COC(=O)Cn1cnc2ccccc2c1=O"
  label class: "inactive"
- compound: "Cc1ccc(S(=O)(=O)N2CCN(C(=O)CN3C(=O)NC(C)(c4ccc(Cl)cc4)C3=O)CC2)c(C)c1 (stereo unspecified)"
  label class: "inactive"
- compound: "Cc1cc(C)c(C#N)c(SCC(=O)N(CC(C)C)C2CCS(=O)(=O)C2)n1 (stereo unspecified)"
  label class: "inactive"
- compound: "COc1ccccc1-c1nnc(NC(=O)c2ccc3ncsc3c2)o1"
  label class: "inactive"
- compound: "O=C(CSc1nc2[nH]ncc2c(=O)[nH]1)Nc1ccc(F)cc1"
  label class: "inactive"
- compound: "Oc1cccc2ccc(/C=C/c3ccc(Br)s3)nc12"
  label class: "active"
- compound: "Cc1cccc(-n2c(C)cc(/C=N\\NC(=O)c3cccs3)c2C)c1"
  label class: "inactive"
- compound: "O=C(NCc1cccnc1)c1cccc(-c2cc3ccccc3oc2=O)c1"
  label class: "inactive"
- compound: "N=c1c2c3c(sc2ncn1N)CCCCC3"
  label class: "inactive"
- compound: "O=c1ccnc(Nc2ccc(Cl)cc2)[nH]1"
  label class: "inactive"
- compound: "CN(Cc1ccccc1F)C(=O)C(Cc1ccccc1)NC(=O)c1ccccc1 (stereo unspecified)"
  label class: "inactive"
- compound: "COc1ccc(-c2oc3ncn(Cc4ccco4)c(=N)c3c2-c2ccc(OC)cc2)cc1"
  label class: "inactive"
- compound: "Cc1cc2c(=O)n(C)c(SCC(=O)c3cc4ccccc4o3)nc2s1"
  label class: "inactive"
- compound: "Cc1ccc(NC(=O)CS(=O)CC(=O)N(c2ccccc2)C(C)C(=O)NC2CCCC2)cc1 (stereo unspecified)"
  label class: "inactive"
- compound: "Cc1cc(C)c(S(=O)(=O)c2ccc(F)cc2C)c(=O)[nH]1"
  label class: "inactive"
- compound: "CCOC(=O)c1c(/N=C/c2cc(C)ccc2O)sc2c1CCC2"
  label class: "inactive"
- compound: "COc1ccc(C(=O)C2CCCN(C(=O)c3cc(C)on3)C2)cc1F (stereo unspecified)"
  label class: "inactive"
- compound: "CCN(CC)S(=O)(=O)c1ccc(N2CC(C(=O)NCc3cccnc3)CC2=O)cc1 (stereo unspecified)"
  label class: "inactive"
- compound: "C1=C(CCNc2ncnc3c2cnn3-c2ccccc2)CCCC1"
  label class: "active"
- compound: "CC1(C)C2CCC13CS(=O)(=O)NC3C2 (stereo unspecified)"
  label class: "inactive"
- compound: "Cc1ccc(NC(=O)c2sccc2C)cc1[N+](=O)[O-]"
  label class: "active"
- compound: "NC(N)=NCCCc1cn(CC(=O)N2CCNCC2)nn1"
  label class: "inactive"
- compound: "O=C(CN1CCN(S(=O)(=O)c2cccc(Cl)c2)CC1)N1CCCCC1"
  label class: "inactive"
